- Tested on: MCF10A
- experiment: one-nucleolus phenotype percent effect, hitpick validation (relative to siNT 0% and siNOL11 100%); higher = more cells with one nucleolus
- experimental_parameters: 20 nM; 72 h
measurement_kind: one-nucleolus phenotype percent effect (%)
Dear colleague, please return just the value in %, with no unit written.

# input Kindly indicate its recorded one-nucleolus phenotype percent effect. Item: UGGUUCUAGACUUGCCAACUA [hsa-miR-182-3p]
# output 165

# input Please supply the value of reported one-nucleolus phenotype percent effect for the item CGCGCCGGGCCCGGGUU [hsa-miR-3195]
# output 196

# input Hello, please tell me recorded one-nucleolus phenotype percent effect for this one: GUUCUCCCAACGUAAGCCCAGC [hsa-miR-629-3p]
# output -55.4

# input Look up and state reported one-nucleolus phenotype percent effect for GGCUGGGUGCUCUUGUGCAGU [hsa-miR-5589-5p]
# output 92.2

# input Input GGCCAGCCACCAGGAGGGCUG [hsa-miR-3194-5p] , output reported one-nucleolus phenotype percent effect.
# output 199

# input Return the recorded one-nucleolus phenotype percent effect value; entry: AAAGGCAUAAAACCAAGACA [hsa-miR-3910]
# output 167

* * *

- Tested on: MCF10A
- experiment: 5+ nucleoli phenotype percent effect (relative to siNT 0% and siKIF11 100%); higher = more cells with five or more nucleoli
- experimental_parameters: 20 nM; 72 h
Please provide measured 5+ nucleoli phenotype percent effect for the entries that follow.
The answer is to be given in %; state only the numeric part.

# input Item CCCUGUGCCCGGCCCACUUCUG [hsa-miR-1914-5p] : provide 5+ nucleoli phenotype percent effect
# output 1.43

# input Kindly indicate its recorded 5+ nucleoli phenotype percent effect. Item: GAGUGGAUAGGGGAGUGUGUGGA [hsa-miR-6849-5p]
# output 31

# input Report 5+ nucleoli phenotype percent effect, nothing else, for this sequence: GUCCUCCAGGCCAUGAGCUGCGG [hsa-miR-4691-5p]
# output 47.9

# input For ACCCUUUUUCUCUUUCCCAG [hsa-miR-6832-3p] , write its 5+ nucleoli phenotype percent effect.
# output 38.2

# input Please report the measured 5+ nucleoli phenotype percent effect for AGAGAAGAAGAUCAGCCUGCA [hsa-miR-1253]
# output 37.9

# input Return reported 5+ nucleoli phenotype percent effect. Input sequence: GGCUCAUGUGUCUGUCCUCUUC [hsa-miR-6847-3p]
# output 1.91

* * *

- Tested on: MCF10A
- experiment: percent viability (nuclei count relative to siNT); higher = more viable cells
- experimental_parameters: 20 nM; 72 h
measurement_kind: percent viability

# input Under MCF10A: report percent viability of AAGUGCCUCCUUUUAGAGUGUU [hsa-miR-519e-3p] .
# output 40.9%

# input Give MCF10A percent viability for the following sequence: UGGGUCUUUGCGGGCGAGAUGA [hsa-miR-193a-5p]
# output 40.4%

# input Give MCF10A percent viability for the following sequence: UUAGGGCCCUGGCUCCAUCUCC [hsa-miR-1296]
# output 39.5%

* * *

- Tested on: MCF10A
- experiment: one-nucleolus phenotype percent effect (relative to siNT 0% and siNOL11 100%); higher = more cells with one nucleolus (ribosome biogenesis inhibition)
- experimental_parameters: 20 nM; 72 h
Give measured one-nucleolus phenotype percent effect for each item. Keep answers brief.
I'd appreciate it if you wrote the number followed by its unit.

# input Please look at UCACCUGAGCUCCCGUGCCUG [hsa-miR-3622b-3p] and tell me its recorded one-nucleolus phenotype percent effect on MCF10A.
# output -20.9%

# input Quote one-nucleolus phenotype percent effect with test system MCF10A for ACCCCUGCCACUCACUGGCC [hsa-miR-6801-3p]
# output -4.08%

# input # assay system MCF10A: give one-nucleolus phenotype percent effect of AAGUUCUGUUAUACACUCAGGC [hsa-miR-148b-5p]
# output 11.3%

# input Find the measured one-nucleolus phenotype percent effect of CGUGGAGGACGAGGAGGAGGC [hsa-miR-7847-3p] with MCF10A as test system.
# output 4.16%

# input Output reported one-nucleolus phenotype percent effect of the sequence UUUCUAUUUCUCAGUGGGGCUC [hsa-miR-4482-3p] on MCF10A.
# output 31.6%

# input Fill in one-nucleolus phenotype percent effect for CUGGGAGGGGCUGGGUUUGGC [hsa-miR-6779-5p] tested with MCF10A.
# output 10.8%

# input Jot down one-nucleolus phenotype percent effect (MCF10A) of GUGGGCGGGGGCAGGUGUGUG [hsa-miR-1228-5p] .
# output -5.58%
